I'd appreciate it if you could supply pIC50 values for the items below.
Procedure text: Anticancer activity against mouse B16F10 cells assessed as growth inhibition after 72 hrs by MTT colorimetric assay
Format: functional, cell-based
Assay context: B16-F10, 72 h
Please express pIC50 as -log10 of the molar concentration.

Request: Tell me its pIC50 given `C/C1=C\CC[C@@]2(C)O[C@@H]2[C@H]2OC(=O)[C@@H](CN3CCCC3)[C@@H]2C[C@@H]1O` as the entry.
Result: 5.15

Request: Tell me its pIC50 given `C[C@]12O[C@@H]1CC[C@@]1(C)O[C@@H]1[C@H]1OC(=O)[C@@H](CN3CCN(c4ccccc4F)CC3)[C@@H]1C[C@H]2O` as the entry.
Result: 5.30

Request: Tell me its pIC50 given `C/C1=C\CC[C@@]2(C)O[C@@H]2[C@H]2OC(=O)[C@@H](CN3CCCC3)[C@@H]2C[C@H]1O` as the entry.
Result: 5.40

Request: Tell me its pIC50 given `C/C1=C\CC[C@@]2(C)O[C@@H]2[C@H]2OC(=O)[C@@H](CN3CCN(C)CC3)[C@@H]2C[C@@H]1O` as the entry.
Result: 5.05

Request: Tell me its pIC50 given `C[C@]12O[C@@H]1CC[C@@]1(C)O[C@@H]1[C@H]1OC(=O)[C@@H](CN3CCN(c4ccccc4)CC3)[C@@H]1C[C@H]2O` as the entry.
Result: 4.66

Request: Tell me its pIC50 given `C/C1=C\CC[C@@]2(C)O[C@@H]2[C@H]2OC(=O)[C@@H](CN3CCN(C)CC3)[C@@H]2C[C@H]1O` as the entry.
Result: 4.60

Request: Tell me its pIC50 given `C=C1C(=O)O[C@H]2[C@H]1C[C@H](O)/C(C)=C/CC[C@@]1(C)O[C@@H]21` as the entry.
Result: 4.82
